experiment: Pharmacokinetics (plasma exposure) after i.v. or p.o. dosing, non-compartmental analysis
Type: in vivo, male Wistar rats
details: male, Wistar, rat, plasma, iv, 3.53 mg/kg, i.v., 3.53 mg/kg, DMSO/PEG400 (5%/95%), read-out: Terminal Half-life elimination, t½z
Protocol: Animals were fasted overnight before dosing p.o. (gavage or capsule) or by bolus intravenous application. Blood samples (approx. 0.15 ml) were taken at different time points into heparinized tubes by automated blood sampling. Plasma was prepared and stored frozen until bioanalysis. […] The samples were analyzed by mass spectroscopy using ESI (negative ion mode) as the ionization mode. […]
property.label: half-life (h)
Report the value in h with no unit label.

COc1ccccc1[C@H]1OC(c2ccccc2Cl)OC[C@H]1C/C=C\CCC(=O)O (stereo partly shown) [drawing 19] has a reported half-life of 3.03
